# target_or_test_system: HEKn (EGFR WT) (Homo sapiens)
# assay_overview: EGFR target modulation in HEKn (EGFR-WT) cell line (phospho-EGFR Y1173 ELISA)
# details: value outside parentheses
recorded_endpoint: IC50 (nM)

| compound | unit_descriptor | IC50 |
| --- | --- | --- |
| Cc1cccc2nc(NC(=O)c3ccc(F)c(F)c3)n(C3CCCCN(C(=O)/C=C/CN(C)C)C3)c12 (stereo not drawn) | nM | 313 |

P = C=CC(=O)N1CCCC[C@@H](n2c(NC(=O)c3cc(C)nc(C)c3)nc3cc(CN4CC[C@@H](F)C4)cc(C)c32)C1
Q = C=CC(=O)N1CCCC[C@@H](n2c(NC(=O)c3ccccc3)nc3cc(CN4CCCC4)cc(C)c32)C1
Task: Select the item with the higher value of IC50 from the options P and Q listed. Identify your pick by its label.
Result: Q

---

# target_or_test_system: EGFR(L858R/T790M) (Homo sapiens, UniProt P00533, L858R/T790M)
# Construct: purchased from Carna (GST-a.a. 669-1210)
# Sequence (P00533 669-1210 T790M/L858R): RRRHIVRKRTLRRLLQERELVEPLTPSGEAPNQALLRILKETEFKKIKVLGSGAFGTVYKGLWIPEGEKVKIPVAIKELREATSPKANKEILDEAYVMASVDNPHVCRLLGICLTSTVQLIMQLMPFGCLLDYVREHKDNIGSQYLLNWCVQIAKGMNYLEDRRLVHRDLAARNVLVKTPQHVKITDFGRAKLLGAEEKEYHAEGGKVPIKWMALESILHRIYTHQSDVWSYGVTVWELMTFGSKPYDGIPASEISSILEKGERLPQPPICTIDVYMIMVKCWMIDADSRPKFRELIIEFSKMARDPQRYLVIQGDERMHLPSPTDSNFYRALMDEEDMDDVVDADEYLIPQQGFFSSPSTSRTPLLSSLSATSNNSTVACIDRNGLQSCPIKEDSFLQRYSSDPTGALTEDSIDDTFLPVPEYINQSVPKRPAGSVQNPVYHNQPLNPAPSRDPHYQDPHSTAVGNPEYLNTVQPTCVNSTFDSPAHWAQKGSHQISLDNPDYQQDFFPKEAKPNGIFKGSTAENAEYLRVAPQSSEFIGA
# assay_overview: EGFR biochemical assay (HTRF), IC50 determinations
# details: EGFR (L858R/T790M) with 90 min pre-incubation; read-out: IC50 (μM) Column B
# Method: All EGFR biochemical assays were carried out by HTRF method. […] The substrate peptide Biotin-TK-peptide was purchased from Cis-Bio. […] All reactions were carried out at room temperature in white ProxiPlate™ 384-well Plus plates (PerkinElmer) and were quenched with 5 μL of 0.2 M EDTA at 60 min. Five L of the detection reagents (2.5 ng PT66K and 0.05 μg SAXL per well) were added, the plates were incubated at room temperature for 1 h and then read in EnVision reader. […]
recorded_endpoint: IC50

Some solved entries appear below for comparison.
| compound | IC50 |
| --- | --- |
| C=CC(=O)N1CCC[C@@H](n2c(NC(=O)c3cccc(C(F)(F)F)c3)nc3cc(CN4CCCC4)ccc32)C1 | 0.004 µM |
| Cc1cc(C(=O)Nc2nc3cccc(Cl)c3n2[C@@H]2CCCCN(C(=O)/C=C/CN3CCCC3)C2)ccn1 | < 0.001 µM |

Record Cc1cccc2nc(NC(=O)c3ccc(F)c(Cl)c3F)n(C3CCCCN(C(=O)/C=C/CN(C)C)C3)c12 (stereo not drawn) , field IC50: < 0.001 µM

Record C=CC(=O)N1CCCC[C@@H](n2c(NC(=O)c3cc(C)nc(C)c3)nc3ccc(OCCN4CCCC4)c(Cl)c32)C1 , field IC50: < 0.001 µM

Record C=CC(=O)N1CCCC[C@@H](n2c(NC(=O)c3ccccc3)nc3cccc(CN(C)CCS(C)(=O)=O)c32)C1 , field IC50: 0.001 µM

Record Cc1cccc2nc(NC(=O)c3cc(Cl)nc(OC(F)(F)F)c3)n([C@@H]3CCCCN(C(=O)/C=C/CN(C)C)C3)c12 , field IC50: < 0.001 µM

Record C=CC(=O)N1CCCC[C@@H](n2c(NC(=O)c3cnnc(C)c3)nc3cc(CN4CCCC4)cc(C)c32)C1 , field IC50: < 0.001 µM

Record COc1cc(C(=O)Nc2nc3cccc(C)c3n2[C@@H]2CCCCN(C(=O)/C=C/CN(C)C)C2)cc(Cl)n1 , field IC50: < 0.001 µM

Record C=CC(=O)N1CCCC[C@@H](n2c(NC(=O)c3cccc(C(F)(F)F)c3)nc3cccc(Cl)c32)C1 , field IC50: < 0.001 µM

Record C=CC(=O)N1CCCCC(n2c(NC(=O)c3cccc(C(F)(F)F)c3)nc3cc(C)ccc32)C1 (stereo not drawn) , field IC50: < 0.001 µM

Record Cc1cc(C(=O)Nc2nc3cccc(Cl)c3n2[C@@H]2CCCCN(C(=O)/C=C/CN3CC[C@@H](O)C3)C2)ccn1 , field IC50: < 0.001 µM

Record Cc1cc(C(=O)Nc2nc3cccc(Cl)c3n2[C@@H]2CCCCN(C(=O)/C=C/CN(C)C)C2)cc(P(C)(C)=O)n1 , field IC50: 0.022 µM

Record COc1cccc2nc(NC(=O)c3ccnnc3)n([C@@H]3CCCCN(C(=O)/C=C/CN(C)C)C3)c12 , field IC50: 0.001 µM

Record C=CC(=O)N1CCCC[C@@H](n2c(NC(=O)c3ccnnc3)nc3cccc(C)c32)C1 , field IC50: < 0.001 µM

---

# target_or_test_system: HEKn (EGFR WT) (Homo sapiens, UniProt P00533)
# Sequence (P00533 25-1210): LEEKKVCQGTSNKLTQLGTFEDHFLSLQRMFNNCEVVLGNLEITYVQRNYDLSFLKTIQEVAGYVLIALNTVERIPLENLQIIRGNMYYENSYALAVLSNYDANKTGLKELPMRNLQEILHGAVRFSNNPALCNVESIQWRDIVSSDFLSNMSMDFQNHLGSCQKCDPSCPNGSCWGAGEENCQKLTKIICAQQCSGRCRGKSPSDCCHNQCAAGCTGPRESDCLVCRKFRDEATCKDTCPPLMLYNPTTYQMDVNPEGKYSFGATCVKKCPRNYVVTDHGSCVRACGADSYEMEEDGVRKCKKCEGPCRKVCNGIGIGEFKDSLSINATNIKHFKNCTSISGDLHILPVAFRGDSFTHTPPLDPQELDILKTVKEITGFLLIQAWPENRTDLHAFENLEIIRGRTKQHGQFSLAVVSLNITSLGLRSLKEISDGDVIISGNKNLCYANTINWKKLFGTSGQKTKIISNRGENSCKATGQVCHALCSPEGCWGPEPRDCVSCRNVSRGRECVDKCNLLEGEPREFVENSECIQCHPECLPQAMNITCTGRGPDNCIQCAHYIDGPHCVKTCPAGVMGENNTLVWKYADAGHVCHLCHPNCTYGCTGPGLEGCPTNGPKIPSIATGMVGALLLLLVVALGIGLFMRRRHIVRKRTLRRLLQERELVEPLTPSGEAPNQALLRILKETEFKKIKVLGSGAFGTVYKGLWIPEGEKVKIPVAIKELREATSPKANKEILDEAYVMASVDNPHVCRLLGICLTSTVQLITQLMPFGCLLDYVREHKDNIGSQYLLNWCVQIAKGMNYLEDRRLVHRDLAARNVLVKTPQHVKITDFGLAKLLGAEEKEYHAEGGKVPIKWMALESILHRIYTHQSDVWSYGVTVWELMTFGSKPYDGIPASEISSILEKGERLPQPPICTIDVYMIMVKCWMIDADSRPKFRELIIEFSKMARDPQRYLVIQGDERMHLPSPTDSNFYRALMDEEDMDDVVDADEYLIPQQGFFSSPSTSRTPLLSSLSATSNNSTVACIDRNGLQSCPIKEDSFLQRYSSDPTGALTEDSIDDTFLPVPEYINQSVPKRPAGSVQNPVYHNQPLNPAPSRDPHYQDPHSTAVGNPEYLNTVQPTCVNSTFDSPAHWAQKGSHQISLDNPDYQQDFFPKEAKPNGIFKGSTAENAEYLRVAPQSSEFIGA
# assay_overview: EGFR target modulation in HEKn (EGFR-WT) cell line (phospho-EGFR Y1173 ELISA)
# details: value outside parentheses
pIC50: −log10 of the molar value.
recorded_endpoint: pIC50

| compound | pIC50 |
| --- | --- |
| C=CC(=O)N1CCCC[C@@H](n2c(NC(=O)c3ccnnc3)nc3ccc(OC)c(Cl)c32)C1 [Example 9] | 6.82 |

I = Cc1cccc2nc(NC(=O)c3cccc(C#N)c3)n(C3CCCCN(C(=O)/C=C/CN(C)C)C3)c12 (centres unmarked) [Example 17-42]
II = Cc1cc(C(=O)Nc2nc3cccc(C)c3n2[C@@H]2CCCCN(C(=O)/C=C/CN3CCCC3)C2)ccn1 [Example 3-9]
Task: Please indicate which has the smaller reported pIC50: I , or II . Identify your pick by its label.
Result: II
(II: 6.23, I: 6.69)

---

# target_or_test_system: H3255 (EGFR L858R) (Homo sapiens, UniProt P00533, L858R)
# Sequence (P00533 25-1210 L858R): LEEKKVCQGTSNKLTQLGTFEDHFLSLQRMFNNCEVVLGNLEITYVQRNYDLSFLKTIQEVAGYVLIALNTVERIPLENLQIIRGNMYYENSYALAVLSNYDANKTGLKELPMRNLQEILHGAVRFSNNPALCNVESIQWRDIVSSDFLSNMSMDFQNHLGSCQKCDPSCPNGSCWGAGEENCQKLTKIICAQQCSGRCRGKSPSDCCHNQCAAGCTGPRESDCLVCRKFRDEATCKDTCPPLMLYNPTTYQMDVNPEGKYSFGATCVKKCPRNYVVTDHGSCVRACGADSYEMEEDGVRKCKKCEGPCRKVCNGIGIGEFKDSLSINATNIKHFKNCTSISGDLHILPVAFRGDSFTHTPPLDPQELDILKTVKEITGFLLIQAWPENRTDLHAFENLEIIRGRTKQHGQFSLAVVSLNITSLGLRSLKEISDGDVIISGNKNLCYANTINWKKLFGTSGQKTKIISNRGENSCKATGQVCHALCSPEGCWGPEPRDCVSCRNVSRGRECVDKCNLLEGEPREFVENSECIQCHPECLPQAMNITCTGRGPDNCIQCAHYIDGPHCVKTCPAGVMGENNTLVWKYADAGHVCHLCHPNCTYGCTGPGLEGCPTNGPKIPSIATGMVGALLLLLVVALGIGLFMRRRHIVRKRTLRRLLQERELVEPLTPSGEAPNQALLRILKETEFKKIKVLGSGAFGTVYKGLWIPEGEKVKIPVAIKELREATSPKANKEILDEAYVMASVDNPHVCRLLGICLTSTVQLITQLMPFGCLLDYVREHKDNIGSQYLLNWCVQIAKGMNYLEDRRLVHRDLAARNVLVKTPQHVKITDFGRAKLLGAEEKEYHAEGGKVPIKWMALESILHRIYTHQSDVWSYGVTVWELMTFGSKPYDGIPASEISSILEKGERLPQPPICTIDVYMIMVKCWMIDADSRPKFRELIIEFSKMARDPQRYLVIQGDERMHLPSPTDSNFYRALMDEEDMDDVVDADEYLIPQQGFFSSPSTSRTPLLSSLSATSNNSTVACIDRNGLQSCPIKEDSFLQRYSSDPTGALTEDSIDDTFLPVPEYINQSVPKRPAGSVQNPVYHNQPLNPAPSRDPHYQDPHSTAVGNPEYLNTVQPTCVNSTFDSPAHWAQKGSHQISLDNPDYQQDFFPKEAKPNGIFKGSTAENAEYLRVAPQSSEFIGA
# assay_overview: EGFR target modulation in H3255 cell line (phospho-EGFR Y1173 ELISA)
recorded_endpoint: IC50 (nM)

| compound | IC50, nM |
| --- | --- |
| C=CC(=O)N1CCCC[C@@H](n2c(NC(=O)c3cc(C)nc(C)c3)nc3cc(CN4CCCC4)cc(C)c32)C1 | 4 |
| C=CC(=O)N1CCCC[C@@H](n2c(NC(=O)c3cc(C)nc(C)c3)nc3cc(CN4CC[C@@H](F)C4)cc(C)c32)C1 | 2 |
| C=CC(=O)N1CCNCC(n2c(NC(=O)c3ccnc(C)c3)nc3cccc(Cl)c32)C1 (stereo not shown) | 312 |
| C=CC(=O)N1CCCC[C@@H](n2c(NC(=O)c3ccnc(C)c3)nc3cc(CN4CC(OC)C4)cc(C)c32)C1 | 2 |

1 = Cc1cc(C(=O)Nc2nc3cccc(Cl)c3n2[C@@H]2CCCCN(C(=O)/C=C/CN3CC(F)C3)C2)ccn1
2 = Cc1cc(C(=O)Nc2nc3cccc(Cl)c3n2C2CCCCN(C(=O)/C=C/CN(C)C)C2)cc(P(C)(C)=O)n1 (single isomer, unassigned) [Example 21-9B]
3 = CO[C@@H]1CCN(C/C=C/C(=O)N2CCCC[C@@H](n3c(NC(=O)c4ccnc(C)c4)nc4cccc(Cl)c43)C2)C1
4 = C=CC(=O)N1CCCC[C@@H](n2c(NC(=O)c3ccnc(C)c3)nc3cc(CN4CC[C@@H](OC)C4)cc(C)c32)C1
Task: List items by IC50 in falling order. Your task in answering is to list the labels in the requested order.
Result: 2, 1, 3, 4
(2: 312 nM, 1: 15 nM, 3: 7 nM, 4: 3 nM)

---

# target_or_test_system: human EGFR WT (NIH/3T3 cells, EGF-induced) (Homo sapiens, UniProt P00533)
# assay_overview: EGFR target modulation in engineered NIH/3T3 cell lines (phospho-EGFR Y1068 AlphaLISA), EGFR WT
# Type: cell-based
# details: engineered NIH/3T3 cells, read-out: NIH3T3 IC50 (μM) EGFR (WT)
IC50 overview

Some solved entries appear below for comparison.
| compound | assay_result |
| --- | --- |
| C/C=C/C(=O)N1CCCCC(n2c(NC(=O)c3cccc(C(F)(F)F)c3)nc3cccc(C)c32)C1 (stereo not drawn) [Example 17-20] | > 10 µM |
| C=CC(=O)N1CCCCC(n2c(NC(=O)c3ccccc3)nc3cccc(C(=O)N4CCS(=O)(=O)CC4)c32)C1 (stereo not drawn) [Example 17-115] | > 10 µM |

Then this compound:
Record Cc1cc(C(=O)Nc2nc3cccc(Cl)c3n2[C@@H]2CCCCN(C(=O)/C=C/CN3CCC(F)(F)C3)C2)ccn1 [Example 3-3] , field IC50: > 7.6 µM

---

# target_or_test_system: human EGFR WT (NIH/3T3 cells, EGF-induced) (Homo sapiens)
# assay_overview: EGFR target modulation in engineered NIH/3T3 cell lines (phospho-EGFR Y1068 AlphaLISA), EGFR WT
# Format: cell-based
# details: engineered NIH/3T3 cells, read-out: NIH3T3 IC50 (μM) EGFR (WT)
recorded_endpoint: IC50 (µM)

Some solved entries appear below for comparison.
| molecule | IC50 (µM) |
| --- | --- |
| Cc1cc(C(=O)Nc2nc3cccc(Cl)c3n2[C@@H]2CCCCN(C(=O)/C=C/CN3CC[C@@H](O)C3)C2)ccn1 [Example 3-6] | 0.114 |
| C=CC(=O)N1CCCC[C@@H](n2c(NC(=O)c3ccnc(C)c3)nc3cc(CN4CCC(F)(F)C4)cc(C)c32)C1 [Example 17-151] | 0.014 |
| CN(C)C/C=C/C(=O)N1CCCC[C@@H](n2c(NC(=O)c3ccnnc3)nc3cccc(Cl)c32)C1 [Example 17-16] | 0.282 |
| Cc1cccc2nc(NC(=O)c3ccccc3)n(C3CCCCN(C(=O)/C=C/CN(C)C)C3)c12 (stereo not shown) [Example 17-40] | 0.49 |
| C=CC(=O)N1CCCC[C@@H](n2c(NC(=O)c3ccnc(C)c3)nc3cc(CN4CC(OC)C4)cc(C)c32)C1 [Example 17-154] | 0.01 |
| C=CC(=O)N1CCCC[C@@H](n2c(NC(=O)c3ccnc(C)c3)nc3cc(CN4CC[C@@H](OC)C4)cc(C)c32)C1 [Example 17-150] | 0.042 |

I = Cc1cccc2nc(NC(=O)c3ccc4ccccc4c3)n(C3CCCCN(C(=O)/C=C/CN(C)C)C3)c12 (stereo not shown) [Example 17-66]
II = C=CC(=O)N1CCCC[C@@H](n2c(NC(=O)c3cccc(C(F)(F)F)c3)nc3cccc(Cl)c32)C1 [Example 17-18]
III = Cc1cccc(C(=O)Nc2nc3cccc(C)c3n2C2CCCCN(C(=O)/C=C/CN(C)C)C2)c1 (stereo not shown) [Example 17-41]
IV = Cc1cccc2nc(NC(=O)c3ccc4nccn4c3)n(C3CCCCN(C(=O)/C=C/CN(C)C)C3)c12 (stereo not shown) [Example 17-55]
V = C=CC(=O)N1CCCC[C@@H](n2c(NC(=O)c3ccnc(C)c3)nc3cc(CN4CC(F)C4)cc(C)c32)C1 [Example 17-152]
Task: Would you mind ranking these molecules by ascending IC50? Your task in answering is to list the labels in the requested order.
Result: IV, V, I, III, II
(IV: 0.022 µM, V: 0.032 µM, I: 0.129 µM, III: 0.44 µM, II: 2.48 µM)
